Origin of values: the supplement of paper PMC12764529

- Assay: folding stability dG unfold from chymotrypsin proteolysis; higher = more stable
Measurement name: folding stability dG unfold (kcal/mol)
Provide the reading as a plain figure in kcal/mol.

The examples below pair each entry with its known result.
SADKVIIPFDSPEEIKGIIKEARKAGIPGKEIVIWSEDDWMYKIEVDPNKGNVEIEPVMPPEDLNDEMPSAG [r14_913_TrROS] :: 0.629
SAGGSAMTEEEFETEFSDPNNSLSTKVKTTRYLEGDTPVVKTTYTTEDPNTGSTYTTEKVTVIPKKSAGGSA [r15_960_JUSTAS] :: -0.218
SAGGPKTIMAMIPRDSPELRKALKWLEKAPPGEEVELKLPGKPIRITNIQPVDDWWMFSVKIPPGLKSAGGS [r16_404_TrROS] :: 0.462
SAGGSALPALAERFPDAEIEPVGDDGTSVTYRFRFPGGDYLLVTVPFLPGTTEAVVDIEWVPRDALSAGGSA [r15_547_TrMRF] :: 2.63
SAGGSAGGSANQVKVEIEIPRMKMERDPDGGYQMEMRPVKIEIEAPMPEEQADDIAKDLIKSAGGSAGGSAG [r3_487_TrROS] :: 0.579
SAGGLTVTLTDSSGNPVTVETELLPDNTLVLTITRTTPSGKTYTRTGIVSIDNTTINLVSFSEWTEDPSAGG [r13_451_JUSTAS] :: 3.25
SAGGSAGGEPETIEIKMTPEELEELARELEKEGYTIEVEVVEEKVVGPDGKEREVVVRVRVEKRSAGGSAGG [r6_857_TrROS_Hall] :: 1.32
SAGGSAGGSAGAPVEVVITFESPTSRTTRTFPADLPEAEVERLAAALRAAHPEPVRVEPRSAGGSAGGSAGG [r11_515_JUSTAS] :: -0.981
SMKTKTVTLDLSPEDPEAARAAVEAAIAEARAADPDTEVTVTVTISPEHPELLAEIEALAAERGVSLVLGSA [r9_1202_JUSTAS] :: 2.84
SAGGSAGGSITIEIPGASSLEEAIEQAEVVVNEIVKKGYPGKPIKVTVILPGTGEAFTFEVPLESAGGSAGG [r6_237_TrMRF] :: 2.4

Q: Consider the sequence SAGGSAGGSAGMKTRTITVSVSPEESEEEVRERVEAELPPGSVVEVTRLPDGTVVVTVEESAGGSAGGSAGG [r17_20_JUSTAS] and give its measured folding stability dG unfold.
Ans: 1.99

Q: Next sequence up: SAGGSMTISYDPSTGTVTITDPTVPLNTPRSITITFPGGETFTATLTPLPDNSATATYTVVPTAGASAGGSA [r2_89_JUSTAS]
Ans: 1.09

Q: Next sequence up: SAGMAKVKLKVEVYFPKTGKPVTMEIEVEGLTLEEIIEEVKKAIEAIGLKIDPDAPVKIVITDIEVYPGSAG [r5_230_TrMRF]
Ans: 3.77

Q: Next sequence up: SAGGSAGGSAGGELVLKIKVKPGEKVKLKLKLFDKNGKLVEEFEVEVEVVKEGDTLYIRLSAGGSAGGSAGG [r7_63_TrROS_Hall]
Ans: 4.03

Q: Next sequence up: MEPPPVVVLEIEIEVPAEDEELRNMTAEELAARLAEELEALPGLKVVSVEVVEVEERPDGTLRVRIRVTIES [r1_484_TrROS_Hall]
Ans: 2.32

Q: Next sequence up: SMVEIKVEKKEDGTVKITIVAPLEKAEEIAKKLAEELGKEVKIVKIEKKKVKVNGEERELVKIEIEIRLPSA [r9_431_TrROS_Hall]
Ans: 2.23

Q: Next sequence up: SAGMEIEITGPNLEELAEKVAKELKEKNWSPPVTITLKEPGGKTVLKVTVEFNPPNPNEIKVTKEKVESAGG [r19_85_JUSTAS]
Ans: 0.902

Q: Next sequence up: SAGGSAGGEEIAKKLGIEKAEIVEVKDNKITLKVKLKNGEELKIELYIDKKTKEIKIVKIEKVPSAGGSAGG [r6_526_TrROS_Hall]
Ans: 3.11

Q: Next sequence up: SAGGDMWMIKVEHPNGRPFQIMINPNKPEISIQFNDGETRTFPIPKDYTIEDLAKELPPGYKVEIHPMSAGG [r13_696_TrROS]
Ans: 2.46

Q: Next sequence up: GLVDEDGKEVFPEVPLVIELDVPENLPDGKKLSPEEVEKLVKGLAEKLKKEYNVKKVEAERKGNKVLILVGS [r1_369_TrMRF]
Ans: 0.519

====

- Assay: folding stability dG unfold (combined trypsin and chymotrypsin); higher = more stable
Measurement name: folding stability dG unfold (kJ/mol)
Provide the reading as a plain figure in kJ/mol.

SAGGSAGGSAGGKVEIYENPSTPYLVVVVYNPETGEKTVVLFKPDNPELAEKVAKELASSAGGSAGGSAGGS [r10_1117_TrMRF] :: 5.77
SMEEKEEVLSVEVDPVGEVVVTRTLVKKSAVDPTNPNNPVPLSLEEIVEPVPLPPPVPLPVPGNPRFEAASA [r9_357_JUSTAS] :: 0.643
SAGGEKDLYLVKYRVEIKNDKGEKKEFPVTAIATSLEELEETLKALTPKNAEAKVEILEVKPLKEVLSSAGG [r13_513_TrMRF] :: 7.2
SAMLTLPVESTDPARVEAAIAEARALAAQGARVEVPVRTPEGPLRFLVDPATGRVVRTDPATGATEVLPSAG [r14_423_JUSTAS] :: -1.02
SAGGSAGGSAGGSMVKVEKNGEGVVTTTTKYFFYPSTGKWSSETITTTKKVPKDEPFPLSAGGSAGGSAGGS [r4_215_JUSTAS] :: -0.358
SAGGMMTPVSEETLPDGSKVLVEENPATGERTVTTLNPATGTVTTETLKRVPGENAWTLLSKTTTPAPSAGG [r19_249_JUSTAS] :: 8.12
SAGGSAGGSKKIVLVLKVKKEKAKEKVEKAKKELEKALPKDYKIKSIEVKYDPETDKVIIVADSAGGSAGGS [r12_308_TrMRF] :: -0.223
SAGGSAGGSAMTIQINNLPPEKIEEAADDHGIDTQRNEESDSYYIEMPPNDMDEIKEALGWSAGGSAGGSAG [r3_354_TrROS] :: 0.93

Q: Consider the sequence SAGGSAGGPYYIMVDIEMYNPQDGKERNFTLMIPVPPGDLPKIKEELLSAGFPIKIKNISIMPPSAGGSAGG [r6_151_TrROS] and give its measured folding stability dG unfold.
Ans: 11.5

Q: Next sequence up: SAGGSAGGSASVEEIADKIQQLHGVDVEVTEPQPNSNGYPRWRIKVDLKGLPEKWMQELLNSAGGSAGGSAG [r3_40_TrROS]
Ans: 1.56

Q: Next sequence up: SAGGSAGGSAMYKVTIEIPETGKIYTFTHPGTAEEALAAALPEIGVSKEKIKKITVTPTEESAGGSAGGSAG [r3_79_JUSTAS]
Ans: 4.16

====

- Assay: folding stability dG unfold (combined trypsin and chymotrypsin); higher = more stable
Overview of recorded folding stability dG unfold for various sequences
Provide the reading as a plain figure in kcal/mol.

SAGGEWRKITVPIKYRFPPGESIDSIANELANLPGLKVEVNVEYEKDPDGRYYMEIPVEIEIPPGAPISAGG [r13_590_TrROS] :: 0.576
SAGGSANFNVKLEIKIIERNPGNPDYVIVRIKVEHRHPNPDGNPMEHRRPIPWIMITDPEEIKEFISAGGSA [r15_1019_TrROS] :: 2.36

Q: Consider the sequence SAGGPPNGMVPIKVPIKIRFPNGHEFKIDEAYVMPNGMVMIEMTHTDPDDKKEKFPFMIPPDNLEIVSAGGS [r16_498_TrROS] and give its measured folding stability dG unfold.
Ans: 1.86

Q: Next sequence up: SKKKKIKKITLTFTTSDGSTITIEIDADQTVTITLPDGSTITITFDKDTGILTITVTNKDGSKQEFKIELSA [r9_99_TrROS_Hall]
Ans: 2.6

Q: Next sequence up: SAGGSAGGSAGGGVTLPTGDIVVPVEYTTTVPVLTYNPTLGVSYFFTLTVTTSSTVYVGLSAGGSAGGSAGG [r7_374_JUSTAS]
Ans: 3.37

Q: Next sequence up: SAGSSTPGSEVVRVTSEVSEGESNRTVSYTTYVFEPGGPALRPLSTSTTTVPAAPGVPEGGTKTISLPGSAG [r5_861_JUSTAS]
Ans: -0.534

Q: Next sequence up: SAGGKPKEIVIEVELEVVEVNGEKYLVLKAKIIDKETNEVYEVTAVFNLKTGKLVGIEVKKLTVEELKSAGG [r13_772_TrROS_Hall]
Ans: 4.66

Q: Next sequence up: SAGGSAAIPLEFELPNGERVTVYYDPETGLFTVEVEVRFGNEKGEPPEVRFRFEVDSLVDLLDFLASAGGSA [r15_31_TrMRF]
Ans: 3.49

Q: Next sequence up: SAVTFPVPVTVTVPDADGGPPAVTVPVAVPVDPDAVRDAAIERLRRELAEAGRPDVTEEDLARPEFLAARSA [r9_263_TrMRF]
Ans: -0.335
